The measurements presented in this section are drawn from the supplement of paper PMC10567573.

B1: TRIM35 (parent)
chain: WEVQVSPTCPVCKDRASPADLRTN

Variants of: B1
Assay: protein stability index of a GFP-peptide fusion (GPS, HEK-293T) (PSI 1-6); higher = more stable;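 note: lentivirally expressed fusions sorted by FACS into six bins by GFP to DsRed ratio, PSI derived from sequencing read proportions per bin multiplied by bin number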
Conditions: c terminus: a fixed tail appended
Output fulfilled for protein stability index not less than 2; output not fulfilled otherwise.

Kindly determine if protein stability index recorded for P18Y is above or exactly 2. fulfilled

Can you handle A19N next? not fulfilled

Can you handle V11D next? fulfilled

Can you handle T23H next? fulfilled

Can you handle N24K next? fulfilled

Can you handle P18K next? fulfilled

Can you handle D20G next? not fulfilled

Can you handle T23C next? fulfilled

Can you handle V3R next? fulfilled

Can you handle E2V next? fulfilled

Can you handle N24M next? not fulfilled

Can you handle L21E next? fulfilled

Can you handle P18S next? fulfilled

Can you handle P10E next? fulfilled

Can you handle V11G next? fulfilled

Can you handle C9W next? fulfilled

Can you handle T8G next? fulfilled

Can you handle P7R next? fulfilled

Can you handle V11I next? fulfilled

Can you handle P10L next? fulfilled
